tested on: LOX IMVI; test: NCI tumour cell line growth inhibition, 48 h
Active and inactive are the calls of the source. Rule as the data show it: active = GI50 up to about 1.1 µM and inactive = higher.
Could you please report measured GI50 for the items listed next?

[in] Hello, I am looking for reported GI50 with LOX IMVI for CCCC(CC)c1c(O)c(O)c(C(CC)CCC)c(C(CC)CCC)c1C(CC)CCC (stereo not drawn) . Could you help?
[out] > 10 µM (inactive)

[in] Entry to check: O=C(c1cccc(F)c1F)N1CCc2c([nH]c3ccccc23)C1c1ccc2c(c1)OCO2 (stereo not drawn)
[out] 20.2 µM (inactive)

[in] Entry to check: CCOC(=O)c1c(O)nc2cccc3c2c1-c1cccnc1S3
[out] 25.1 µM (inactive)
